- Test system: OVCAR-4
- Protocol: NCI tumour cell line growth inhibition, 48 h
Activity calls are given as the source filed them. Cut-off read from the data, not from the text of the source: active = GI50 up to about 1.1 µM and inactive = higher.
Experimental endpoint: GI50

INSERT INTO measurements (compound, experimental_endpoint, experimental_value) VALUES
  ('COC1=C(OC)C(=O)C(Sc2ccc3ccccc3c2)=CC1=O', 'GI50', '3.67 µM (inactive)'),
  ('[N-]=[N+]=CC(=O)OC(CCl)CCl', 'GI50', '> 100 µM (inactive)');

Lookup: Dear colleague, I am looking for the recorded GI50 of the following compound: CC(C)c1cc2c(c(O)c1O)[C@@]1(C)CCCC(C)(C)C1=C(O)C2
Found: 1.29 µM (inactive)

Lookup: Also need c1ccc2c(c1)CCCc1cc3ccccc3nc1-2 , thanks.
Found: 68.1 µM (inactive)

Lookup: Also need Cc1c2c(C#N)nccc2c(C)c2c1c1ccccc1n2Cc1ccccc1 , thanks.
Found: > 100 µM (inactive)

Lookup: Also need CCCCOC(=O)C1CN2C=CC=NC2=NC1(C(F)(F)F)C(F)(F)F (stereo not given) , thanks.
Found: > 100 µM (inactive)

Lookup: Also need CNC(=O)c1ccccc1-[s+]1c2ccccc2c(=O)n1C (stereo not given) , thanks.
Found: > 100 µM (inactive)

Lookup: Also need O=C(Cn1ccnc1[N+](=O)[O-])NCc1ccc(F)cc1 , thanks.
Found: > 100 µM (inactive)

Lookup: Also need c1ccc(NN=C(c2ccccn2)c2ccccn2)nc1 , thanks.
Found: 0.213 µM (active)

Lookup: Also need CCOC(=O)COS(=O)(=O)C(F)(F)F , thanks.
Found: > 100 µM (inactive)

Lookup: Also need CCN(CC)C1CCC(C2c3cc4c(cc3OC(N3CCOCC3)C2C)OCO4)CC1 (stereo not given) , thanks.
Found: > 100 µM (inactive)

Lookup: Also need COC(=O)c1cc2c3c(ccc2[nH]1)N(C(=O)c1cc2cc(OC)c(OC)c(OC)c2[nH]1)CC3CCl (stereo not given) , thanks.
Found: 8.34 µM (inactive)

* * *

- Test system: Malme-3M
- Protocol: NCI tumour cell line growth inhibition, 48 h
Calls of active or inactive are those of the source. Cut-off read from the data, not from the text of the source: active = GI50 up to about 1.1 µM and inactive = higher.
Please reply with one of these outcomes: Y (active), N (inactive)

See these solved cases before continuing.
INSERT INTO results (compound, cat) VALUES
  ('COc1ccc2c(c1)-c1nc(=S)n(CCN(C)C)c3ccc([N+](=O)[O-])c(c13)N2', 'Y'),
  ('COc1cc2c(NCCN(C)C)nc3c4cc5c(cc4ccc3c2cc1OC)OCO5', 'N'),
  ('CC1=C(C(=O)CC(=O)C(=O)Nc2ccccc2)Sc2ccccc2N1', 'N');

Lookup: So what was the verdict on Nn1c(S)nnc1NNC(=O)C(=O)Nc1cc(Cl)c(Cl)cc1Cl in this test?
Found: N

Lookup: Also need CCNC(=O)C#CC(=O)NCC , thanks.
Found: N

Lookup: Also need CC(C)=CC1C[C@H](C2CC=C3C2(C)CCC2[C@@]3(C)C(=O)CC3[C@]2(C)C=CC(=O)[C@]3(C)CO)CO1 (some centres undefined) , thanks.
Found: N

Lookup: Also need Fc1ccc(C(OCCN2CC3CC2CN3)c2ccc(F)cc2)cc1 (centres undefined) , thanks.
Found: N

Lookup: Also need CN1CCC2(CC1)C(=O)N(N1CCCCCC1)C(=O)N2c1ccccc1 , thanks.
Found: N

Lookup: Also need Cc1c2ccccc2c(C)n2c1nc1ccccc12 , thanks.
Found: N

Lookup: Also need CC(=O)O[C@H]1CC[C@@]2(C)C(=C[C@H](c3ccc(O)cc3)[C@H]3[C@@H]4CC[C@H](OC(C)=O)[C@@]4(C)CC[C@@H]32)C1 , thanks.
Found: N

Lookup: Also need CN(C)CCCn1c(Cn2nc3ccccc3n2)nc2cc(C(F)(F)F)ccc21 , thanks.
Found: N

Lookup: Also need O=C1Nc2cc(Cl)ccc2N=CC1NC(=O)C(c1ccccc1)c1ccccc1Cl (centres undefined) , thanks.
Found: N

Lookup: Also need O=C(Cc1ccccc1)NN1C(=O)C(Cl)C1c1ccccc1 (centres undefined) , thanks.
Found: N

Lookup: Also need CCOC(=O)NC(Nc1c(F)c(F)c(F)c(F)c1F)(C(F)(F)F)C(F)(F)F , thanks.
Found: N

* * *

- Tested on: RXF 631
- Protocol: NCI tumour cell line growth inhibition, 48 h
The source made the active and inactive calls. Rule as the data show it: active = GI50 up to about 1.1 µM and inactive = higher.
// values below are reported GI50

INSERT INTO results (compound, experimental_value) VALUES
  ('Cc1c(Cl)cccc1NC(=O)C(=O)C1C(=O)CC(C)(C)CC1=O', '> 100 µM (inactive)'),
  ('O=C(NCCO)c1ccc([N+](=O)[O-])cc1', '> 100 µM (inactive)');

Now look at this entry.
Lookup: Dear colleague, I am looking for the recorded GI50 of the following compound: COC1/C=C/OC2(C)Oc3c(C)c(O)c4c(c3C2=O)C(=O)C=C(NC(=O)/C(C)=C\C=C\C(C)C(OC=O)C(C)C(O)C(C)C(OC(C)=O)C1C)C4=O (stereo not drawn)
Found: 15.7 µM (inactive)

* * *

- System: A549
- Protocol: NCI tumour cell line growth inhibition, 48 h
The source made the active and inactive calls. Rule as the data show it: active = GI50 up to about 1.1 µM and inactive = higher.
// values below are reported GI50

INSERT INTO measurements (molecule, experimental_endpoint, experimental_value) VALUES
  ('CN(c1ccccc1)S(=O)(=O)c1ccccc1[N+](=O)[O-]', 'GI50', '> 100 µM (inactive)'),
  ('CN1CCN(CCNc2ccc(CO)c3sc4ccccc4c(=O)c23)CC1', 'GI50', '10.5 µM (inactive)'),
  ('COc1ccc(CNC(C)C(=O)O)cc1 (stereo not given)', 'GI50', '> 100 µM (inactive)');

Lookup: Dear colleague, I am looking for the recorded GI50 of the following molecule: CC(C)CC1c2[nH]c3ccccc3c2C[C@H]2C(=O)NC(Cc3c[nH]c4ccccc34)C(=O)N12 (stereo not given in full)
Found: 12.5 µM (inactive)

Lookup: Also need Brc1ccc(-c2cn3ccncc3n2)cc1 , thanks.
Found: > 100 µM (inactive)

* * *

- Test system: SN12C
- Protocol: NCI tumour cell line growth inhibition, 48 h
Active and inactive are the calls of the source. No stated cut-off is given here; in the data, active = GI50 up to about 1.1 µM and inactive = higher.
Experimental endpoint: GI50

Lookup: Dear colleague, I am looking for the recorded GI50 of the following compound: Nc1c(C(=O)Nc2ccccc2)[n+]([O-])c2ccccc2[n+]1[O-]
Found: 14.8 µM (inactive)

* * *

- Tested on: SNB-19
- Protocol: NCI tumour cell line growth inhibition, 48 h
Calls of active or inactive are those of the source. Rule as the data show it: active = GI50 up to about 1.1 µM and inactive = higher.
// values below are reported GI50

INSERT INTO measurements (molecule, experimental_endpoint, experimental_value) VALUES
  ('CCOC1CN=C(Nc2cccc3ccccc23)S1 (stereo not drawn)', 'GI50', '> 10 µM (inactive)'),
  ('COc1ccc(COC(=O)NNC(=O)C2CSC(c3ccccc3)N2C(C)=O)cc1 (stereo not drawn)', 'GI50', '> 100 µM (inactive)'),
  ('Cc1ccc([Se](=C(C(=O)c2ccccc2)C(=O)c2ccccc2)c2ccc(C)cc2)cc1', 'GI50', '27.4 µM (inactive)'),
  ('CCOC(=O)c1c(Br)c(-c2ccc(Br)cc2)c(Br)n1C', 'GI50', '28.3 µM (inactive)'),
  ('CCOC(=O)CCc1cn2cc(Br)nc(OC)c2n1', 'GI50', '> 100 µM (inactive)'),
  ('Cc1c(-c2ccccc2)c(-c2ccc(OCCN(C)C)cc2)n2ccccc12', 'GI50', '12 µM (inactive)'),
  ('Clc1ccc(-c2nn3c(COc4ccc(OCc5nnc6sc(-c7ccc(Cl)cc7)nn56)c(Cl)c4)nnc3s2)cc1', 'GI50', '14.6 µM (inactive)'),
  ('CNC(=O)/C(=C/c1ccc(OC)cc1)c1cc(OC)c(OC)c(OC)c1', 'GI50', '4.58 µM (inactive)');

Lookup: Dear colleague, I am looking for the recorded GI50 of the following molecule: C[Si](C)(c1ccccc1)[C@H]1CCCC=C1CCNC1c2ccccc2CCc2ccccc21
Found: > 100 µM (inactive)

Lookup: Also need CC(=O)N1CCN(C23OC4(N5CCN(C(C)=O)CC5)C5C6CC(C7C6C4C72)C53)CC1 (stereo not drawn) , thanks.
Found: > 100 µM (inactive)

Lookup: Also need Oc1ccc[n+](Cc2ccccc2)c1 , thanks.
Found: > 100 µM (inactive)

Lookup: Also need CCC(O)(Cc1ccc(OC)cc1)c1ccc(OC)cc1 (stereo not drawn) , thanks.
Found: > 100 µM (inactive)

Lookup: Also need Cc1ccc(/C=C2\NC(=S)NC2=O)cc1 , thanks.
Found: > 100 µM (inactive)

* * *

- Test system: 786-0
- Protocol: NCI tumour cell line growth inhibition, 48 h
Activity calls are given as the source filed them. Cut-off read from the data, not from the text of the source: active = GI50 up to about 1.1 µM and inactive = higher.
Please reply with one of these outcomes: active, inactive

See these solved cases before continuing.
INSERT INTO results (compound, experimental_target, cat) VALUES
  ('C=C(CO)CC(/C=C(\C)CC/C=C(\C)CCl)OC(C)=O (centres undefined)', '786-0', 'inactive'),
  ('O=C(CCc1ccc(O)c(O)c1)NCCc1cc(O)cc(OCc2ccccc2)c1', '786-0', 'inactive'),
  ('Cn1ccc(C(=O)N2CCSC2=S)c(OCc2ccccc2)c1=O', '786-0', 'inactive');

Turning now to a further compound:
Lookup: So what was the verdict on COc1cc(CCc2ccc(OCCN(C)C)cc2)cc(OC)c1OC in this test?
Found: inactive
